system: LEGO organoid PTN (PTEN-/-; TP53-/-; NF1-/-); assay: bioluminescence (viable cell) signal fold change after vs before treatment, normalised to DMSO (ratio); higher = more tumour cell growth / less inhibition; conditions: 10 µM; treatment time 6 days
Recorded bioluminescence values for a group of molecules are listed next.

molecule | bioluminescence
CC/C(=C(\c1ccccc1)c1ccc(OCCN(C)C)cc1)c1ccccc1.O=C(O)CC(O)(CC(=O)O)C(=O)O [Tamoxifen Z-isomer citrate] | 6.34
C#Cc1cccc(Nc2ncnc3cc(OCCOC)c(OCCOC)cc23)c1 | 1.82
CC(CN(C)C)CN1c2ccccc2CCc2ccccc21.O=C(O)/C=C\C(=O)O (centres undefined) [Trimipramine maleate] | 1.58
Cl.Nc1c2c(nc3ccccc13)CCCC2.O [Tacrine hydrochloride hydrate] | 1.22

---

tested on: LEGO organoid PTN (PTEN-/-; TP53-/-; NF1-/-); experiment: bioluminescence (viable cell) signal fold change after vs before treatment, normalised to DMSO (ratio); higher = more tumour cell growth / less inhibition; conditions: 10 µM; treatment time 6 days
measured-endpoint: bioluminescence

compound | result
CN(C)CCOC(C)(c1ccccc1)c1ccccn1.O=C(O)CCC(=O)O (stereo not drawn) [Doxylamine succinate] | 0.999
CC(C)Oc1ccc(-c2nc(-c3cccc4c3CC[C@@H]4NCCO)no2)cc1C#N | 0.741
Cc1nc(Nc2ncc(C(=O)Nc3c(C)cccc3Cl)s2)cc(N2CCN(CCO)CC2)n1 | 2
COc1cc2ncnc(Nc3ccc(F)c(Cl)c3)c2cc1OCCCN1CCOCC1 | 2.43
CNCCCC1c2ccccc2C=Cc2ccccc21.Cl [Protriptyline hydrochloride] | 1.14
CC1COc2c(N3CCN(C)CC3)c(F)cc3c(=O)c(C(=O)O)cn1c23 (stereo not drawn) | 1.19
CC1(C)O[C@@H]2[C@@H](CO[C@@]3(COS(N)(=O)=O)OC(C)(C)O[C@@H]23)O1 [Topiramate] | 5.65
Cl.OC[C@H]1NC[C@H](O)[C@@H](O)[C@H]1O [Migalastat hydrochloride] | 0.719

---

test system: LEGO organoid PT (PTEN-/-; TP53-/-); experiment: bioluminescence (viable cell) signal fold change after vs before treatment, normalised to DMSO (ratio); higher = more tumour cell growth / less inhibition; conditions: 10 µM; treatment time 6 days

molecule | bioluminescence
CC(C(=O)O)c1cccc(C(=O)c2ccccc2)c1 (stereo not drawn) | 0.893
CN1CC(=O)N2[C@H](c3ccc4c(c3)OCO4)c3[nH]c4ccccc4c3C[C@@H]2C1=O | 1.59
COc1c(N2CCNC(C)C2)c(F)cc2c(=O)c(C(=O)O)cn(C3CC3)c12 (stereo not drawn) | 1.66
CN1CCN2c3ncccc3Cc3ccccc3C2C1 (stereo not drawn) | 1.1
Cl.O=C1CC2(CCCC2)CC(=O)N1CCCCN1CCN(c2ncccn2)CC1 [Buspirone hydrochloride] | 1.22
CC(C)(C)c1cc(C(C)(C)C)c(NC(=O)c2c[nH]c3ccccc3c2=O)cc1O | 0.378
CCN(CC)CCNC(=O)c1c(C)[nH]c(/C=C2\C(=O)Nc3ccc(F)cc32)c1C | 0.391
CCc1c2c(nc3ccc(OC(=O)N4CCC(N5CCCCC5)CC4)cc13)-c1cc3c(c(=O)n1C2)COC(=O)[C@]3(O)CC.Cl.O.O.O [Irinotecan hydrochloride trihydrate] | 0.98

---

system: LEGO organoid PTCC (PTEN-/-; TP53-/-; CDKN2A-/-; CDKN2B-/-); assay: bioluminescence (viable cell) signal fold change after vs before treatment, normalised to DMSO (ratio); higher = more tumour cell growth / less inhibition; settings: 10 µM; treatment time 6 days
Tag: yes (1) if measured bioluminescence is not below 1, no (0) if it is.

molecule | category
CC(C)Nc1cccnc1N1CCN(C(=O)c2cc3cc(NS(C)(=O)=O)ccc3[nH]2)CC1.CS(=O)(=O)O [Delavirdine mesylate] | no (0)
C=CC(=O)N1CCC[C@@H](n2nc(-c3ccc(Oc4ccccc4)cc3)c3c(N)ncnc32)C1 | yes (1)
COc1ccc2c(c1)c(CC(=O)O)c(C)n2C(=O)c1ccc(Cl)cc1 | yes (1)
O=C1[N-]C(=O)C(c2ccccc2)(c2ccccc2)N1.[Na+] [Phenytoin sodium] | yes (1)
CCn1c(=O)c2c(nc(/C=C/c3ccc(OC)c(OC)c3)n2C)n(CC)c1=O | yes (1)
CCc1c(C)[nH]c2c1C(=O)C(CN1CCOCC1)CC2.Cl (stereo not given) [Molindone hydrochloride] | yes (1)
COc1cc(C(C)=O)ccc1OCCCN1CCC(c2noc3cc(F)ccc23)CC1 | yes (1)
O=C(CCCN1CC=C(n2c(=O)[nH]c3ccccc32)CC1)c1ccc(F)cc1 | no (0)
C[C@H]1[C@H](NC(=O)/C(=N\OC(C)(C)C(=O)O)c2csc(N)n2)C(=O)N1S(=O)(=O)O | no (0)
Cl.OC(CCN1CCCC1)(c1ccccc1)C1CCCCC1 (stereo not given) [Procyclidine hydrochloride] | no (0)
Cc1cccc(N(C)C(=S)Oc2ccc3ccccc3c2)c1 [Tolnaftate] | no (0)
NC(CO)(CO)CO.O=C(c1ccccc1)c1ccc2n1CCC2C(=O)O (stereo not given) [Ketorolac tromethamine salt] | yes (1)
NCC[C@H](O)C(=O)N[C@@H]1C[C@H](N)[C@@H](O[C@H]2O[C@H](CN)[C@@H](O)[C@H](O)[C@H]2O)[C@H](O)[C@H]1O[C@H]1O[C@H](CO)[C@@H](O)[C@H](N)[C@H]1O.O=S(=O)(O)O.O=S(=O)(O)O [Amikacin disulfate] | yes (1)

---

Recorded bioluminescence for the following molecules
test system: LEGO organoid PTN (PTEN-/-; TP53-/-; NF1-/-); assay: bioluminescence (viable cell) signal fold change after vs before treatment, normalised to DMSO (ratio); higher = more tumour cell growth / less inhibition; settings: 10 µM; treatment time 6 days

molecule | bioluminescence
CNC(=O)c1cc(Oc2ccc(NC(=O)Nc3ccc(Cl)c(C(F)(F)F)c3)cc2)ccn1 [Sorafenib] | 0.285
NCC[C@H](O)C(=O)N[C@@H]1C[C@H](N)[C@@H](O[C@H]2O[C@H](CN)[C@@H](O)[C@H](O)[C@H]2O)[C@H](O)[C@H]1O[C@H]1O[C@H](CO)[C@@H](O)[C@H](N)[C@H]1O.O=S(=O)(O)O.O=S(=O)(O)O [Amikacin disulfate] | 0.614
CN1[C@@H]2CCC[C@H]1C[C@@H](NC(=O)c1nn(C)c3ccccc13)C2.Cl [Granisetron hydrochloride] | 1.92
COc1c(N2CCNC(C)C2)c(F)cc2c(=O)c(C(=O)O)cn(C3CC3)c12 (stereo unspecified) [Gatifloxacin] | 4.79
CO[C@H]1/C=C/O[C@@]2(C)Oc3c(C)c(O)c4c(O)c(c(/C=N/N5CCN(C6CCCC6)CC5)c(O)c4c3C2=O)NC(=O)/C(C)=C\C=C\[C@H](C)[C@H](O)[C@@H](C)[C@@H](O)[C@@H](C)[C@H](OC(C)=O)[C@@H]1C [Rifapentine] | 1.39
O=c1cc(O)c(Cl)c[nH]1 [Gimeracil] | 1.25

---

test system: LEGO organoid PTCC (PTEN-/-; TP53-/-; CDKN2A-/-; CDKN2B-/-); test: bioluminescence (viable cell) signal fold change after vs before treatment, normalised to DMSO (ratio); higher = more tumour cell growth / less inhibition; details: 10 µM; treatment time 6 days
# binarize bioluminescence: threshold 1 inclusive, high side 1, low side 0

compound | category
O=C(CCCCCCC(=O)Nc1ccccc1)NO | 0
C/C=C(/C)C(=O)O[C@H]1C(C)=C[C@]23C(=O)[C@@H](C=C(CO)[C@@H](O)[C@]12O)[C@H]1[C@@H](C[C@H]3C)C1(C)C [Ingenol Mebutate] | 1
CCC1(c2ccccc2)C(=O)NCNC1=O | 0
Cl.O=C1c2cccc3c2[C@H](CCC3)CN1[C@@H]1CN2CCC1CC2 [Palonosetron hydrochloride] | 0
CCCCCCCCc1ccc(CCC(N)(CO)CO)cc1.Cl [Fingolimod hydrochloride] | 1
CC(C)c1c(C(=O)Nc2ccccc2)c(-c2ccccc2)c(-c2ccc(F)cc2)n1CC[C@@H](O)C[C@@H](O)CC(=O)[O-].CC(C)c1c(C(=O)Nc2ccccc2)c(-c2ccccc2)c(-c2ccc(F)cc2)n1CC[C@@H](O)C[C@@H](O)CC(=O)[O-].[Ca+2] | 0
FC(F)(F)C(Cl)Br (stereo unspecified) | 0
CCc1c2c(nc3ccc(OC(=O)N4CCC(N5CCCCC5)CC4)cc13)-c1cc3c(c(=O)n1C2)COC(=O)[C@]3(O)CC | 1
COC(c1ccccc1)(c1ccccc1)[C@H](Oc1nc(C)cc(C)n1)C(=O)O | 1
CCN(CC)CCNC(=O)c1c(C)[nH]c(/C=C2\C(=O)Nc3ccc(F)cc32)c1C | 0
CCCCC1C(=O)N(c2ccccc2)N(c2ccccc2)C1=O | 1
Cn1c(=O)c2[nH]cnc2n(C)c1=O | 1
Nc1nc(=O)c2c(CCc3ccc(C(=O)N[C@@H](CCC(=O)[O-])C(=O)[O-])cc3)c[nH]c2[nH]1.Nc1nc(=O)c2c(CCc3ccc(C(=O)N[C@@H](CCC(=O)[O-])C(=O)[O-])cc3)c[nH]c2[nH]1.O.O.O.O.O.[Na+].[Na+].[Na+].[Na+] [Pemetrexed Disodium Hydrate] | 0
O=c1[nH]cnc2c1ncn2[C@H]1CC[C@@H](CO)O1 | 1
CO/N=C(\C(=O)N[C@@H]1C(=O)N2C(C(=O)[O-])=C(COC(C)=O)CS[C@H]12)c1csc(N)n1.[Na+] [Cefotaxime sodium] | 1
